Tested on: Colo205
protocol-notes: Analysis of the cell cycle phases, Colo205
Format: cell-based
condition-summary: G1/G0 phase
# Cell cycle phase (%) G1/G0 annotations

Past entries and their recorded results:
line-notation	Cell cycle phase (%) G1/G0
O=CC=C(Cl)c1ccc(OC(=O)c2ccccc2)cc1OC(=O)c1ccccc1	54.2 ± 0.35%
CC(C)=CCOc1ccc(C(C)=C(C#N)C#N)cc1	90.0 ± 0.91%
N#CC(C#N)=C/C=C(\Cl)c1ccccc1OC(=O)c1ccccc1	64.3 ± 1.69%

Let us move to another entry and its Cell cycle phase (%) G1/G0.
Given CC(=O)c1ccc(OCC=C(C)C)cc1 , state its recorded Cell cycle phase (%) G1/G0.
48.0 ± 2.54%

---

# reported pIC50; entries follow
System: MIAP2
protocol-notes: In vitro cytotoxicity, MIAP2 pancreas line
Assay type: cell-based
condition-summary: Homo sapiens; MIAP2, pancreas; read-out: IC50
Remember the convention: pIC50 equals -log10 of concentration in molar.

Examples from the recorded data:
line-notation	measured-property	reported-measurement
CC(=O)c1ccc(OCC=C(C)C)cc1	pIC50	3.08
CCSC(=CC(=C(C#N)C#N)c1ccc(OCC=C(C)C)cc1)SCC	pIC50	5.41
CC(C)=CCOc1ccc(C(C)=C(C#N)C#N)cc1	pIC50	3.81

Value lookup for pIC50; key = N#CC(C#N)=C/C=C(\Cl)c1ccccc1OC(=O)c1ccccc1
5.35
